# Method notes: qHTS assay to identify small molecule agonists of H2AX (AID 1224845)
# Test settings: CHO-K1 phospho-H2AX Ser139 HTRF, 3 h; series mostly up to 154 µM
Results filed as inconclusive are left out. Active and inactive are the calls of the source. Calls come from the whole dose curve; as a rule, active = well fitted activation curve with a large enough effect in the signal ratio in the repeat runs (not every such curve was filed as active); inconclusive = weak or mixed curves; inactive = flat fitted curve, though single readings scatter; the % refers to the signal ratio.
Reported endpoint: outcome

Solved entries:
[[record]]
molecule = "COC(=O)OC"
reported_endpoint = "outcome"
measurement = "inactive"

[[record]]
molecule = "CN=C(NC#N)NCCSCc1nc[nH]c1C"
reported_endpoint = "outcome"
measurement = "inactive"

[[record]]
molecule = "COc1ccc2cc3[n+](cc2c1OC)CCc1cc2c(cc1-3)OCO2"
reported_endpoint = "outcome"
measurement = "inactive"

[[record]]
molecule = "Cc1ccc([N+](=O)[O-])cc1N"
reported_endpoint = "outcome"
measurement = "inactive"

[[record]]
molecule = "CCCCCNCCCCC"
reported_endpoint = "outcome"
measurement = "inactive"

[[record]]
molecule = "C=C(CC(=O)O)C(=O)O"
reported_endpoint = "outcome"
measurement = "inactive"

[[record]]
molecule = "Cc1nnc(NS(=O)(=O)c2ccc(N)cc2)s1"
reported_endpoint = "outcome"
measurement = "inactive"

[[record]]
molecule = "CCCCC(CC)COC(=O)c1ccc(C(=O)OCC(CC)CCCC)cc1 (stereo not given)"
reported_endpoint = "outcome"
measurement = "inactive"

[[record]]
molecule = "CCCCCCC(=O)O"
reported_endpoint = "outcome"
measurement = "inactive"

[[record]]
molecule = "Cc1ccc(Cl)cc1"
reported_endpoint = "outcome"
measurement = "inactive"


Specify reported outcome for the molecule shown: CC(O)CNCC(C)O (stereo not given)
inactive

Specify reported outcome for the molecule shown: CCCOCC(C)O (stereo not given)
inactive

Specify reported outcome for the molecule shown: `COC(=O)/C=C\C(=O)OC`
inactive

All values here come from PubChem BioAssay (Tox21).
